// MIC (μg/mL) P. vulgaris lookup, one value per entry
tested on: Proteus vulgaris; test: MIC against Gram-negative bacteria: Proteus vulgaris; assay type: cell-based; conditions: P. vulgaris; 10 h cultivation at 37° C.; 5×10^5 CFU/mL
Just the number in µg/mL, nothing appended.

>  <substance>
PRT155 (APGPCAAQPCRNGGVCTSRPEPDPQHPAPAGEPGYSCTCPAGISGANCQ; listed as Homo sapiens)

>  <MIC (μg/mL) P. vulgaris [µg/mL]>
25

$$$$

Input PRT265 (CQDGHGGCSEHANCSQVGTMVTCTCLPDYEGDGWSC; listed as Homo sapiens) , output reported MIC (μg/mL) P. vulgaris.
50

Return the recorded MIC (μg/mL) P. vulgaris value; entry: PRT807 (YGDGCQLPCTCQNGADCHSITGGCTCAPGFMGEVCA; listed as Homo sapiens)
50
